Provenance of the data: ChEMBL document CHEMBL5465560

# Assayed system: 5-hydroxytryptamine receptor 1A (Homo sapiens, UniProt P08908)
# Sequence (P08908 whole entry): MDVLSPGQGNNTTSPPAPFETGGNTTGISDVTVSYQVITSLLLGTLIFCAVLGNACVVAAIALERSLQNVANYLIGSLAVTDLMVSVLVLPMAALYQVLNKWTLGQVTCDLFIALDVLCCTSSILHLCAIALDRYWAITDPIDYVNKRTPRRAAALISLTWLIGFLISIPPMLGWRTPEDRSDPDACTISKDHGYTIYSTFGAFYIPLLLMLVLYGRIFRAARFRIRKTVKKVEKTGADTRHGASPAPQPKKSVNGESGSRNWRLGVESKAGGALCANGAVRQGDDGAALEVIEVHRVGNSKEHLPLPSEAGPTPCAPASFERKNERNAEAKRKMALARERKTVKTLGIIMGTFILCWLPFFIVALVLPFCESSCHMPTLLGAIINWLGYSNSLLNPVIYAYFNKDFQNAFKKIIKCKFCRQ
# Assay remarks: Selectivity interaction (BET inhibitor selectivity panel (Human SPA binding assay)) EUB0000102c HTR1A
Recorded endpoint: IC50

QUERY: Quick one: IC50 of COc1cc2c(cc1-c1c(C)noc1C)ncc1[nH]c(=O)n([C@H](C)c3ccccn3)c12 ?
RESULT: > 100 µM

---

# Assayed system: Cyclin-dependent kinase 7 (Homo sapiens, UniProt P50613)
# Sequence (P50613 whole entry): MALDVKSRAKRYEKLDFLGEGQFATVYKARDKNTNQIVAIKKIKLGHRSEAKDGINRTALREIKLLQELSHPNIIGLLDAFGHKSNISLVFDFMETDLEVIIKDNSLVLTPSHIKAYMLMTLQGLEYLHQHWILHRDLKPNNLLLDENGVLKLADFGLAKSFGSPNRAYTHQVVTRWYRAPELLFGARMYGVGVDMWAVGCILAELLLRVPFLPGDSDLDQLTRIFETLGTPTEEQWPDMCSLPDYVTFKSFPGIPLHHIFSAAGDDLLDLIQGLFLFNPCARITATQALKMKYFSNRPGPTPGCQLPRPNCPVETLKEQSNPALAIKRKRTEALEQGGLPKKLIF
# Assay remarks: Selectivity interaction (KINOMEscan (DiscoverX, competition-binding assay)) EUB0001868a CDK7
Recorded endpoint: Kd (nM)
Report only the number, with the unit nM understood.

QUERY: Any idea what its Kd is? The compound is Cc1cc(-c2ccnc(Nc3cnn(C)c3)n2)ccc1CNC(=O)N1CC(OC(C)C)C1
RESULT: 880
